The reported numbers originate from the supplement of paper PMC13380429.

Tested on: Vero E6 infected with SARS-CoV-2
Test: morphology score (similarity to uninfected cells); higher = more like uninfected cells
Reported Conditions: 24 h
// reported morphology score for each item listed
The answer should be a number; do not append a unit.

Examples from the recorded data:
> print(dat)
                                   compound   recorded.metric  reported.measurement
1  O[C@@H](CN1CCNCC1)Cn1c2ccc(Br)cc2c2cc(Br)ccc21 [BAX-channel-blocker] (0.833333 µM)  morphology score                 0.121
2  C/C=C/c1cc(OC)c(OC)cc1OC [alpha-asarone] (10 µM)  morphology score                0.0292
3  Cc1cc2nc3c(=O)[nH]c(=O)nc-3n(C)c2cc1C=O (10 µM)  morphology score                 0.102

Consider now this further compound.
Ask: Param item = FC(F)(F)C(F)(F)C(F)(F)N(C(F)(F)C(F)(F)C(F)(F)F)C(F)(F)C(F)(F)C(F)(F)F [perfluamine] (10 µM) ; retrieve measured morphology score.
Reply: 0.16
